experiment description: A CellTox Green Cytotoxicity Assay to monitor cytotoxicity in HepG2 cells - 16 hour (AID 1224876); also: nearly all actives have a fitted effect of over 45% in size
particulars: CellTox Green fluorescence; series mostly up to 76.8 µM
From the text: National Center for Advancing Translational Sciences [NCATS] NIH Chemical Genomics Center [NCGC] U.S. Environmental Protection Agency [EPA] National Institutes of Environmental Health Sciences [NIEHS] National Toxicology Program [NTP] Cell-based models are critical for drug discovery. […] Viable cells produce no appreciable increases in fluorescence. Therefore, the fluorescence signal produced by the binding interaction with dead cell DNA is proportional to cytotoxicity. […]
Results filed as inconclusive are left out. Calls of active or inactive are those of the source. Calls follow the shape of the dose curve; as a rule, active = well fitted activation curve with a large enough effect in the repeat runs; inconclusive = weak or mixed curves; inactive = flat fitted curve, though single readings scatter.
Give your call using only these classes: active, inactive

Hi, sorry to bother you, what did the test record for CCC(C)(C)C(=O)OC1=C(c2ccc(Cl)cc2Cl)C(=O)OC12CCCCC2 ?
inactive

Also C[CH2][Hg][N]1C(=O)C2C(C1=O)C1(Cl)C(Cl)=C(Cl)C2(Cl)C1(Cl)Cl (stereo unspecified) , if possible.
active

Also NC(=O)CCl , if possible.
inactive

Also CC(C)(O)c1cnn2c(-c3ccc(F)c(-c4c(F)cccc4C#N)c3)cnc2n1 , if possible.
inactive

Also CCCCOCN(C(=O)CCl)c1c(CC)cccc1CC , if possible.
inactive

Also N#C/C=C/C#N , if possible.
inactive
